The measurements presented in this section are drawn from paper PMC9181188.

Property: MIC; scope: individual compounds
# Test system: S. aureus ATCC 6538
# EXPERIMENT: MIC, twofold microdilution, standard strain
# Format: cell-based
# CONDITION_SUMMARY: Staphylococcus aureus, ATCC6538; 18 h of treatment; read-out: MIC S. aureus ATCC 6538
Respond with the bare value in µg/mL.

Solved cases below.
Query: Give MIC for this entry on S. aureus ATCC 6538: COc1c(N2C[C@@H]3CCCN[C@@H]3C2)c(F)cc2c(=O)c(C(=O)O)cn(C3CC3)c12 [MXF, moxifloxacin, reference compound]
Reply: 0.06

Query: Provide MIC, tested on S. aureus ATCC 6538, for CC/C=C\C/C=C\C/C=C\C/C=C\C/C=C\C/C=C\CCC(=O)N1CCCC2CN(c3c(F)cc4c(=O)c(C(=O)O)cn(C5CC5)c4c3OC)CC21 (stereo not drawn) [Compound 8m] .
Reply: 2

Next compound, MIC to be filled in.
Query: Look up S. aureus ATCC 6538 data: MIC of C=CCCCCC(=O)N1CCCC2CN(c3c(F)cc4c(=O)c(C(=O)O)cn(C5CC5)c4c3OC)CC21 (stereo not drawn) [Compound 10m] , then report it.
Reply: 2

====

Listing of recorded MIC by entry.
# Tested on: standard staphylococci (S. aureus, S. epidermidis)
# EXPERIMENT: MIC, standard Gram-positive strains as a group
# Assay type: cell-based
# CONDITION_SUMMARY: Staphylococcus aureus; range over standard Gram-positive strains; read-out: MIC against standard staphylococci

Query: Report MIC under test system standard staphylococci (S. aureus, S. epidermidis) for `CCCCCCCCCCCCCCCC(=O)N1CCC[C@H]2CN(c3c(F)cc4c(=O)c(C(=O)O)cn(C5CC5)c4c3OC)C[C@H]21` .
Reply: > 32 µg/mL

Query: Provide standard staphylococci (S. aureus, S. epidermidis) MIC reading for CCCCC/C=C\C/C=C\CCCCCCCC(=O)N1CCCC2CN(c3c(F)cc4c(=O)c(C(=O)O)cn(C5CC5)c4c3OC)CC21 (stereo not shown) [Compound 11m] .
Reply: > 32 µg/mL

Query: Write down the reported MIC (system: standard staphylococci (S. aureus, S. epidermidis)) of C/C=C/C=C/C(=O)N1CCCC2CN(c3c(F)cc4c(=O)c(C(=O)O)cn(C5CC5)c4c3OC)CC21 (stereo not shown)
Reply: 0.5 to 2 µg/mL

Query: Provide MIC, tested on standard staphylococci (S. aureus, S. epidermidis), for CCCCCCCC/C=C\CCCCCCCCCCCC(=O)N1CCCC2CN(c3c(F)cc4c(=O)c(C(=O)O)cn(C5CC5)c4c3OC)CC21 (stereo not shown) .
Reply: > 32 µg/mL

Query: Please tell me the measured MIC for CCCCCCCC/C=C\CCCCCCCC(=O)N1CCCC2CN(c3c(F)cc4c(=O)c(C(=O)O)cn(C5CC5)c4c3OC)CC21 (stereo not shown) ; system: standard staphylococci (S. aureus, S. epidermidis).
Reply: > 32 µg/mL

Others:
Query: Provide MIC, system standard staphylococci (S. aureus, S. epidermidis), entry CCCCCCCCCCCCCCCCCC(=O)N1CCCC2CN(c3c(F)cc4c(=O)c(C(=O)O)cn(C5CC5)c4c3OC)CC21 (stereo not shown) [Compound 16m]
Reply: > 32 µg/mL

Query: Provide standard staphylococci (S. aureus, S. epidermidis) MIC reading for CCCCC/C=C\C/C=C\C/C=C\C/C=C\CCCC(=O)N1CCCC2CN(c3c(F)cc4c(=O)c(C(=O)O)cn(C5CC5)c4c3OC)CC21 (stereo not shown) [Compound 13m] .
Reply: 8 to 32 µg/mL

Query: Recall the reported MIC of CCCCC/C=C\C/C=C\C/C=C\CCCCC(=O)N1CCCC2CN(c3c(F)cc4c(=O)c(C(=O)O)cn(C5CC5)c4c3OC)CC21 (stereo not shown) [Compound 12m] on standard staphylococci (S. aureus, S. epidermidis) and write it down.
Reply: > 32 µg/mL

Query: Give reported MIC for CCCCCCCC(=O)N1CCCC2CN(c3c(F)cc4c(=O)c(C(=O)O)cn(C5CC5)c4c3OC)CC21 (stereo not shown) [Compound 15m] (standard staphylococci (S. aureus, S. epidermidis))
Reply: 4 to 8 µg/mL

Query: Report its MIC with standard staphylococci (S. aureus, S. epidermidis) as the test system: COc1c(N2CC3CCCN(C(C)=O)C3C2)c(F)cc2c(=O)c(C(=O)O)cn(C3CC3)c12 (stereo not shown) [Compound 14m]
Reply: 0.25 to 1 µg/mL
